Reference source for all entries: PubChem BioAssay (NCI)

Test system: SK-MEL-2 melanoma
Assay: NCI tumour cell line growth inhibition, 48 h
Value type: TGI (µM)
Please give a number only; it is taken to be in µM.

Value of TGI reported for the molecule OC(CC(c1ccccc1)c1ccc(Cl)cc1)c1ccc(Cl)cc1 (configuration not stated) is 49.8

Value of TGI reported for the molecule "O=C(N[C@@H]1CCCc2ccccc21)[C@H](CCC(=O)N1CCN(C2CCCCC2)CC1)N1C(=O)[C@@H](N2C(=O)OC[C@@H]2c2ccccc2)[C@H]1/C=C/c1ccccc1" is 4.29

Value of TGI reported for the molecule CC1=NN(c2ccc(C)cc2)C2(C1)SCC(=O)N2c1nc2ccccc2s1 (configuration not stated) is 61.1

Value of TGI reported for the molecule "COc1ccccc1Cn1cc2c(c1)-c1oncc1CC2" is 72.7

====

Test system: A549 NSCLC
Experiment: NCI tumour cell line growth inhibition, 48 h
Value type: TGI

Value of TGI reported for the molecule CO[C@H]1C=C[C@]23c4cc5c(cc4CN(CC2O)[C@@H]3C1)OCO5 (stereo not given in full) is 44.9 µM

Value of TGI reported for the molecule "Cc1ncc([N+](=O)[O-])n1CCN=[N+]=[N-]" is > 100 µM

Value of TGI reported for the molecule "CN(C)CCCn1c2ccccc2c2cnccc21" is > 100 µM

Value of TGI reported for the molecule "CCN(CC)CCOc1ccc(/C=C2\C[C@H]3[C@@H]4CC=C5C[C@@H](OC(C)=O)CC[C@]5(C)[C@H]4CC[C@]3(C)[C@H]2OC(C)=O)cc1OC" is 19.6 µM

Value of TGI reported for the molecule O=c1c2ccccc2nc(-c2ccccc2)n1NCC1(O)OCC(O)C(O)C1O (stereo not given) is > 100 µM

Value of TGI reported for the molecule CN1CCCC1c1cccnc1.O=C(O)c1ccccc1O.O=C([O-])c1ccccc1[OH2+].O=C([O-])c1ccccc1[OH2+].O=C([O-])c1ccccc1[OH2+].[Mn+2] (stereo not given) is > 100 µM

Value of TGI reported for the molecule CCOC(=O)C1C(c2cc(OC)c(O)c(OC)c2)c2cc3c(cc2OC1(C)O)OCO3 (stereo not given) is > 100 µM

Value of TGI reported for the molecule COC(=O)C12CC(C3CC31)C1CC12 (stereo not given) is > 100 µM

Value of TGI reported for the molecule "Cc1cs/c(=N\C(P(=O)(O)O)P(=O)(O)O)n1C" is > 100 µM

Value of TGI reported for the molecule "Cc1nnc2n1N=C(CC(=O)c1ccc(O)cc1O)CN2N" is > 100 µM

Value of TGI reported for the molecule Cc1ccc(C2=Nc3c(N)ncnc3NC(c3cccc(Nc4ccnc5cc(C(F)(F)F)ccc45)c3)C2)cc1 (stereo not given) is 13.2 µM

Value of TGI reported for the molecule "O=C(N[C@@H]1CCCc2ccccc21)[C@H](CCC(=O)N1CCN(C2CCCCC2)CC1)N1C(=O)[C@@H](N2C(=O)OC[C@@H]2c2ccccc2)[C@H]1/C=C/c1ccccc1" is 14.8 µM

Value of TGI reported for the molecule COc1ccc(N2C(=O)C3c4[nH]c5ccc(C)cc5c4C4CCC(C(C)C)CC4C3C2=O)cc1 (stereo not given) is > 100 µM

Value of TGI reported for the molecule "CC(=O)[CH-]C(=O)c1ccccc1.CC(=O)[CH-]C(=O)c1ccccc1.[O]=[U+2]=[O]" is > 100 µM

Value of TGI reported for the molecule CN1CC2(CCCCC2)C(O)C12C=CCCC2 (stereo not given) is > 100 µM

Value of TGI reported for the molecule "N#Cc1c(=O)c2cccnc2n2c1[nH]c1ccccc12" is > 100 µM

Value of TGI reported for the molecule "O=C1C=C(Nc2cccc(Br)c2)c2ccccc2C1=O" is 12.3 µM

Value of TGI reported for the molecule "CCOC(=O)c1[nH]c2c(c1C)-c1[nH]c(=O)c(S(=O)(=O)c3ccccc3)cc1SC2" is > 100 µM

Value of TGI reported for the molecule "CCCC/C(=N\N=C(N)N)c1ccc(F)cc1" is 16.7 µM

Value of TGI reported for the molecule "O=C1/C(=C/c2ccccc2S)N=C(c2ccccc2)N1c1ccc2c(c1)Sc1cc(N3C(=O)/C(=C/c4ccccc4S)N=C3c3ccccc3)ccc1N2" is 35 µM

====

Test system: RXF 393 renal
Test: NCI tumour cell line growth inhibition, 48 h
Value type: TGI

Value of TGI reported for the molecule "NC1=NS(=O)(=O)N=C(N)C1=Cc1ccc([N+](=O)[O-])o1" is 32.8 µM

Value of TGI reported for the molecule "Oc1cc2cc(-c3ccccc3)[nH]c2c2ccccc12" is > 78.3 µM

Value of TGI reported for the molecule "COc1cc(S(=O)(=O)Nc2nc(-c3ccc(N4C(=O)/C(=C/c5ccccc5)N=C4c4ccccc4)cc3)cs2)ccc1Cl" is 91.7 µM

Value of TGI reported for the molecule CCCCCCCCCCCCC(=O)NCC(=O)NC(Cc1ccccc1)C(=O)Oc1ccc([N+](=O)[O-])cc1 (stereo not drawn) is > 100 µM

Value of TGI reported for the molecule "COC(=O)[C@H](Cc1ccccc1)NC(=O)c1csc([C@@H](C[C@H](C(C)C)N(C)C(=O)[C@@H](NC(=O)[C@H]2CCCCN2C)C2CC2)OC(C)=O)n1" is > 25 µM

Value of TGI reported for the molecule "CC(C)(C)n1cc(-c2ccnc(NCCNS(=O)(=O)c3ccc(Br)cc3)c2)c(-c2cccc(O)c2)n1" is 3.23 µM

Value of TGI reported for the molecule "O=C(Cc1nc2ccc(C(=O)c3ccccc3)cc2[nH]c1=O)C(=O)Nc1ccccc1[N+](=O)[O-]" is > 100 µM

Value of TGI reported for the molecule Cc1cccc(NC(=O)CC(=O)N2N=C(N3c4ccccc4Sc4ccccc43)CC2c2ccccc2)c1 (stereo not drawn) is > 100 µM

====

System: MOLT-4 leukemia
Assay: NCI tumour cell line growth inhibition, 48 h
Each entry gets no if its TGI stays under 7 µM, and yes if its TGI is 7 µM or above.

Task item: Quick check: does "COc1cc(N=Nc2cccc(S(=O)(=O)O)c2)c(C)cc1N=Nc1ccc(/C=C/c2ccc(N=[N+]([O-])c3ccc(/C=C/c4ccc(N=Nc5cc(C)c(N=Nc6cccc(S(=O)(=O)O)c6)cc5OC)cc4)c(S(=O)(=O)O)c3)cc2S(=O)(=O)O)cc1" have TGI greater than or equal to 7 µM?
Reply: yes

Task item: Quick check: does O=C1CSC2(CC(/C=C/C=C/c3ccccc3)=NN2c2cccc(S(=O)(=O)O)c2)N1c1nc2ccccc2s1 (stereo not drawn) have TGI greater than or equal to 7 µM?
Reply: yes

Task item: Quick check: does [N-]=[N+]=NC1(c2ccccc2)C(=O)Nc2ccccc2C1=O (stereo not drawn) have TGI greater than or equal to 7 µM?
Reply: yes

Task item: Quick check: does COc1ccc(N2C(=O)C3c4[nH]c5ccc(C)cc5c4C4CCC(C(C)C)CC4C3C2=O)cc1 (stereo not drawn) have TGI greater than or equal to 7 µM?
Reply: yes

Task item: Quick check: does COc1cc(C2SCC(=O)N2NC(=O)c2ccc(NC(C)=O)cc2)cc(OC)c1OC (stereo not drawn) have TGI greater than or equal to 7 µM?
Reply: yes

Task item: Quick check: does "CN(C)c1ccc(-c2nc(-c3cc4c(ccc5ccccc54)oc3=O)cs2)cc1" have TGI greater than or equal to 7 µM?
Reply: yes

Task item: Quick check: does "COc1ccc2nc3ccc(OC)cc3c(SCCCN)c2c1" have TGI greater than or equal to 7 µM?
Reply: no

Task item: Quick check: does "CCN(CC)c1ccc(C(=C2C=CC(=[N+](CC)CC)C=C2)c2ccc(N(CC)CC)cc2)cc1" have TGI greater than or equal to 7 µM?
Reply: no

Task item: Quick check: does "Cc1nnc([S-])s1.[Au+].c1ccc([PH+](c2ccccc2)c2ccccc2)cc1" have TGI greater than or equal to 7 µM?
Reply: no

Task item: Quick check: does CC1CN=C(c2cccc(OCc3ccc(COc4cccc(C5=NCC(C)N5)c4)cc3)c2)N1 (stereo not drawn) have TGI greater than or equal to 7 µM?
Reply: yes

Task item: Quick check: does Cc1cccc(NC(=O)CC(=O)N2N=C(N3c4ccccc4Sc4ccccc43)CC2c2ccccc2)c1 (stereo not drawn) have TGI greater than or equal to 7 µM?
Reply: yes

Task item: Quick check: does "c1ccc2c(c1)nc(NCCN1CCNCC1)c1c3ccccc3[nH]c21" have TGI greater than or equal to 7 µM?
Reply: no

Task item: Quick check: does "Clc1ccc2c(Cl)ncnc2c1" have TGI greater than or equal to 7 µM?
Reply: yes

Task item: Quick check: does "Oc1cc2cc(-c3ccccc3)[nH]c2c2ccccc12" have TGI greater than or equal to 7 µM?
Reply: yes

Task item: Quick check: does "CCOC(=O)c1[nH]c2c(c1C)-c1[nH]c(=O)c(S(=O)(=O)c3ccccc3)cc1SC2" have TGI greater than or equal to 7 µM?
Reply: yes

Task item: Quick check: does "O=C1C=CC(=O)c2c(O)c(N3CCSCC3)c(Cl)c(O)c21" have TGI greater than or equal to 7 µM?
Reply: no

Task item: Quick check: does "CC(C)OP(=O)(OC(C)C)C(N(C)C)P(=O)(OC(C)C)OC(C)C.[Cl][Sn]([Cl])([Cl])[c]1ccccc1" have TGI greater than or equal to 7 µM?
Reply: yes

Task item: Quick check: does "COc1cc(S(=O)(=O)Nc2nc(-c3ccc(N4C(=O)/C(=C/c5ccccc5)N=C4c4ccccc4)cc3)cs2)ccc1Cl" have TGI greater than or equal to 7 µM?
Reply: yes
